assay: recombinant UMI read abundance after kanamycin selection (control-corrected) (log10(CPM+1)); higher = more efficient recombination; extreme values may be limits of the assay; sequences stand for … in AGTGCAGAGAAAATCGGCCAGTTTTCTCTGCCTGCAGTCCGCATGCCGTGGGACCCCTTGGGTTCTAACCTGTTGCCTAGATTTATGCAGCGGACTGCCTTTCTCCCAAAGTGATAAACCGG…AGGTTGGTTTCACT; site = the 11-nt donor;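 also: IS621 bridge recombinase in Escherichia coli cells against a fixed T5 target plasmid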
MEASURE: recombinant UMI read abundance (log10)
# respond with the number and nothing more

Query: What does the data say about its recombinant UMI read abundance (log10)? Entry: TACAGGCCATGGACCGGTTTTCCCGGTAATCCGTATTTGAC (site TACAGGCCTGT)
Reply: 0

Query: What does the data say about its recombinant UMI read abundance (log10)? Entry: TCTAAGTCATGGACCGGTTTTCCCGGTAATCCGTATTTGCA (site TCTAAGTCTTG)
Reply: 0.436

Query: What does the data say about its recombinant UMI read abundance (log10)? Entry: CTTAAAGCATGGACCGGTTTTCCCGGTAATCCGTATTTGAT (site CTTAAAGCTAT)
Reply: 1.08

Query: What does the data say about its recombinant UMI read abundance (log10)? Entry: GCGAAGCCATGGACCGGTTTTCCCGGTAATCCGTATTTGGA (site GCGAAGCCTAC)
Reply: 0.00917

Query: What does the data say about its recombinant UMI read abundance (log10)? Entry: CGTAGAACATGGACCGGTTTTCCCGGTAATCCGTATTTGCC (site CGTAGAACTGG)
Reply: 2.75

Query: What does the data say about its recombinant UMI read abundance (log10)? Entry: ATCCTAGCATGGACCGGTTTTCCCGGTAATCCGTATTTGAG (site ATCCTAGCTCT)
Reply: 0.651

Query: What does the data say about its recombinant UMI read abundance (log10)? Entry: GACTGGACATGGACCGGTTTTCCCGGTAATCCGTATTTGGT (site GACTGGACTAC)
Reply: 0.826

Query: What does the data say about its recombinant UMI read abundance (log10)? Entry: TCAAACTCATGGACCGGTTTTCCCGGTAATCCGTATTTGCA (site TCAAACTCTTG)
Reply: 1.55

Query: What does the data say about its recombinant UMI read abundance (log10)? Entry: CCCTCGGCATGGACCGGTTTTCCCGGTAATCCGTATTTGCT (site CCCTCGGCTAG)
Reply: 0.0794

Source: the supplement of paper PMC11208160
